targetSystem: human NLRP3 (Homo sapiens (Human), UniProt Q96P20)
Sequence (Q96P20 whole entry): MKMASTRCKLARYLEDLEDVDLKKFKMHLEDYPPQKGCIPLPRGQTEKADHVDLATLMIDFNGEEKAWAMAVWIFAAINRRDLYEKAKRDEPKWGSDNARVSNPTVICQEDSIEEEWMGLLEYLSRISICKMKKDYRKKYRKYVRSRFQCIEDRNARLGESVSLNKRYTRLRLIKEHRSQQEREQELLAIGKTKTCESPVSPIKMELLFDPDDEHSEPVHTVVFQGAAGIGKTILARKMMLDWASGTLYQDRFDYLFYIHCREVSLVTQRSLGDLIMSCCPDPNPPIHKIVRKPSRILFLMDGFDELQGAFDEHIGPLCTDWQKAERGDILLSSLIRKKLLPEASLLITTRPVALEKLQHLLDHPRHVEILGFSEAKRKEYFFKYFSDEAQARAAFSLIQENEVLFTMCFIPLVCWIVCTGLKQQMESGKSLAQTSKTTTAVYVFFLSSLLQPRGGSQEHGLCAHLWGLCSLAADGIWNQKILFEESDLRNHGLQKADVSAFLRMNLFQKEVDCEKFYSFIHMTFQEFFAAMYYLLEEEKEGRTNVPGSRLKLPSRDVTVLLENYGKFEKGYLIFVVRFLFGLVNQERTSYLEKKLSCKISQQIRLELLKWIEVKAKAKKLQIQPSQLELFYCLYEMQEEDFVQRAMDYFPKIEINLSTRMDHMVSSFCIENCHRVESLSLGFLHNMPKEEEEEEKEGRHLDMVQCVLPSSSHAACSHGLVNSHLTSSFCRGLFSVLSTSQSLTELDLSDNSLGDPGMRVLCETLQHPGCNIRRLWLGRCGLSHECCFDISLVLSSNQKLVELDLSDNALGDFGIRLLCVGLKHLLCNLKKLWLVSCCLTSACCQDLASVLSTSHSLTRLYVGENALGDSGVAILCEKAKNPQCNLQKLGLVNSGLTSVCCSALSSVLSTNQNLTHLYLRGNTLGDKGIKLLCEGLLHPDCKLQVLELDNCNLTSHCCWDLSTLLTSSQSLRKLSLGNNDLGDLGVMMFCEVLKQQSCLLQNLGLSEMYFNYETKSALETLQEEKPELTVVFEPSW
testSummary: Human Whole Blood (hWB) NLRP3 Assay (LPS/ATP, IL-1β)
Assay type: cell-based
particulars: human whole blood, LPS/ATP, IL-1β; read-out: hWB IC50
pIC50: −log10 of the molar value.
readout: pIC50

As a guide, the following entries are already answered.
{"compound": "C[C@@H]1CCN(c2nnn[nH]2)C[C@H](NC(=O)C2(c3c(F)cc(Cl)cc3F)CC2)C1 (single isomer, unassigned) [72A*]", "readout": "pIC50", "result": "< 5.52"}
{"compound": "C[C@@H]1CCN(c2nnn[nH]2)C[C@H](NC(=O)C2(c3ccc(Cl)cc3)CC2)C1 (single isomer, unassigned) [12A*]", "readout": "pIC50", "result": "> 6.00"}
{"compound": "C[C@@H]1CCN(c2nnn[nH]2)C[C@H](NC(=O)C2(c3ccc(OC(F)(F)F)c(F)c3O)CC2)C1 (single isomer, unassigned) [28A*]", "readout": "pIC50", "result": "< 5.52"}

Required: pIC50, one value per compound below.
1. CC(C)c1ccc(C2(C(=O)N[C@@H]3C[C@H](C)CCN(c4nnn[nH]4)C3)CC2)c(O)c1 (single isomer, unassigned) [27A*]
2. C[C@H]1C[C@@H](NC(=O)C2(c3ccc(OC(F)(F)F)cc3O)CC2)CN(c2nnn[nH]2)C1 [Compound 17A]
3. Cc1ccc(C2(C(=O)N[C@@H]3C[C@H](C)CCN(c4nnn[nH]4)C3)CC2)c(O)c1F (single isomer, unassigned) [22A*]

[out]
1. > 6.00
2. > 6.00
3. > 6.00

====

targetSystem: human NLRP3 (Homo sapiens (Human), UniProt Q96P20)
testSummary: Scintillation Proximity (SPA) NLRP3 Assay: displacement of 3H-MCC950
Assay type: binding
particulars: displacement of 3H-MCC950; read-out: SPA IC50
readout: IC50

As a guide, the following entries are already answered.
{"molecule": "Cc1cc(C2(C(=O)N[C@@H]3C[C@@H](C)CCN(c4nnn[nH]4)C3)CC2)ccc1C(F)(F)F (single isomer, unassigned) [6C*]", "IC50": "> 100 µM"}
{"molecule": "C[C@@H]1CCN(c2nnn[nH]2)C[C@H](NC(=O)C2(c3ccc(C4CC4)cc3)CC2)C1 (single isomer, unassigned) [2A*]", "IC50": "< 1 µM"}
{"molecule": "C[C@H]1CCN(c2nnn[nH]2)C[C@@H](NC(=O)C2(c3ccc(OC(F)(F)F)cc3)CC2)C1 (single isomer, unassigned) [57D*]", "IC50": "10 to 50 µM"}

Required: IC50, one value per molecule below.
1. C[C@H]1CCN(c2nnn[nH]2)C[C@@H](NC(=O)C2(c3ccc(Cl)c(F)c3O)CC2)C1 (single isomer, unassigned) [18D*]
2. C[C@@H]1CCN(c2nnn[nH]2)C[C@@H](NC(=O)C2(c3ccc(SC(F)(F)F)cc3)CC2)C1 (single isomer, unassigned) [69B*]
3. C[C@@H]1C[C@@H](NC(=O)C2(c3ccc(OC(F)(F)F)cc3)CC2)[C@H]2CC[C@@H]1N2c1nnn[nH]1 [82A*]

[out]
1: < 1 µM; 2: 10 to 50 µM; 3: < 1 µM

====

Would you mind telling me the reported IC50 of each entry?
targetSystem: human NLRP3 (Homo sapiens (Human))
testSummary: Human Whole Blood (hWB) NLRP3 Assay (LPS/ATP, IL-1β)
Assay type: cell-based
particulars: human whole blood, LPS/ATP, IL-1β; read-out: hWB IC50

As a guide, the following entries are already answered.
{"compound": "C[C@@H]1CCN(c2nnn[nH]2)C[C@@H](NC(=O)C2(c3ccc(OC(F)(F)F)cc3O)CC2)C1 (single isomer, unassigned) [62B*]", "IC50": "1000 to 2000 nM"}
{"compound": "C[C@@H]1CCN(c2nnn[nH]2)C[C@H](NC(=O)C2(c3cc(F)c(Cl)cc3O)CC2)C1 (single isomer, unassigned) [29A*]", "IC50": "1000 to 2000 nM"}
{"compound": "C[C@H]1C[C@@H](NC(=O)C2(c3ccc(Cl)cc3)CC2)CN(c2nnn[nH]2)C1 [Compound 46A]", "IC50": "2000 to 3000 nM"}

Required: IC50, one value per compound below.
1. Cc1ccc(C2(C(=O)N[C@@H]3C[C@H](C)CCN(c4nnn[nH]4)C3)CC2)c(O)c1 (single isomer, unassigned) [67A*]
2. C[C@@H]1CCN(c2nnn[nH]2)C[C@H](NC(=O)C2(c3ccc(OC(F)(F)F)cc3F)CC2)C1 (single isomer, unassigned) [64A*]

[out]
1: < 1000 nM; 2: < 1000 nM

Required: IC50, one value per compound below.
1. C[C@@H]1CCN(c2nnn[nH]2)C[C@H](NC(=O)C2(c3ccc(C(F)(F)F)cc3)CC2)C1 (single isomer, unassigned) [61A*]
2. C[C@@H]1CCN(c2nnn[nH]2)C[C@H](NC(=O)C2(c3ccc(C(F)(F)F)c(F)c3)CC2)C1 (single isomer, unassigned) [66A*]

[out]
1: < 1000 nM; 2: < 1000 nM

[in] Please report the measured IC50 for O=C(N[C@@H]1CC[C@H]2CC[C@@H]1N2c1nnn[nH]1)C1(c2ccc(Cl)c(F)c2O)CC1 [76C*]
[out] 1000 to 2000 nM

====

targetSystem: human NLRP3 (Homo sapiens (Human), UniProt Q96P20)
testSummary: Scintillation Proximity (SPA) NLRP3 Assay: displacement of 3H-MCC950
Format: binding
particulars: displacement of 3H-MCC950; read-out: SPA IC50
pIC50: −log10 of the molar value.
Would you mind telling me the reported pIC50 of each entry?

Required: pIC50, one value per compound below.
1. O=C(N[C@H]1CN(c2nnn[nH]2)CC[C@@H]1F)C1(c2ccc(Cl)cc2)CC1 [Compound 50C]
2. C[C@@H]1C[C@H](NC(=O)C2(c3ccc(OC(F)F)cc3)CC2)[C@H]2CC[C@@H]1N2c1nnn[nH]1 (single isomer, unassigned) [35B*]
3. C[C@@H]1CCN(c2nnn[nH]2)C[C@H](NC(=O)C2(c3ccc(Cl)c(F)c3)CC2)C1 (single isomer, unassigned) [65A*]

[out]
4.30 to 5.00
4.00 to 4.30
> 6.00

Required: pIC50, one value per compound below.
1. Cc1c(Cl)ccc(C2(C(=O)N[C@H]3C[C@@H](C)CCN(c4nnn[nH]4)C3)CC2)c1O (single isomer, unassigned) [21D*]
2. C[C@@H]1CCN(c2nnn[nH]2)C[C@@H](NC(=O)C2(c3ccc(Cl)c(F)c3O)CC2)C1 (single isomer, unassigned) [18B*]
3. O=C(N[C@H]1C[C@@H](C(F)(F)F)[C@@H]2CC[C@H]1N2c1nnn[nH]1)C1(c2ccc(Cl)cc2)CC1 (single isomer, unassigned) [103B*]

[out]
4.30 to 5.00
5.00 to 6.00
< 4.00

====

Would you mind telling me the reported IC50 of each entry?
targetSystem: human NLRP3 (Homo sapiens (Human), UniProt Q96P20)
testSummary: Scintillation Proximity (SPA) NLRP3 Assay: displacement of 3H-MCC950
Type: binding
particulars: displacement of 3H-MCC950; read-out: SPA IC50

As a guide, the following entries are already answered.
{"compound": "C[C@H]1C[C@@H](NC(=O)C2(c3ccc(Cl)cc3)CC2)CN(c2nnn[nH]2)C1 [Compound 46A]", "targetSystem": "human NLRP3 (Homo sapiens (Human), UniProt Q96P20)", "IC50": "< 1 µM"}
{"compound": "CC(C)c1ccc(C2(C(=O)N[C@H]3C[C@@H](C)CCN(c4nnn[nH]4)C3)CC2)c(O)c1 (single isomer, unassigned) [27D*]", "targetSystem": "human NLRP3 (Homo sapiens (Human), UniProt Q96P20)", "IC50": "1 to 10 µM"}

Required: IC50, one value per compound below.
1. O=C(N[C@@H]1CN(c2nnn[nH]2)CCC(F)(F)C1)C1(c2ccc(Cl)cc2)CC1 (single isomer, unassigned) [53B*]
2. C[C@H]1CCN(c2nnn[nH]2)C[C@H](NC(=O)C2(c3ccc(OC(F)F)cc3O)CC2)C1 (single isomer, unassigned) [70C*]
3. C[C@@H]1C[C@@H](NC(=O)C2(c3ccc(C(F)F)cc3)CC2)[C@H]2CC[C@@H]1N2c1nnn[nH]1 [86A*]
4. C[C@@H]1CCN(c2nnn[nH]2)C[C@H](NC(=O)C2(c3ccc(Cl)c(F)c3O)CC2)C1 (single isomer, unassigned) [18A*]
5. C[C@H]1CCN(c2nnn[nH]2)C[C@H](NC(=O)C2(c3ccc(C(F)(F)F)cc3O)CC2)C1 (single isomer, unassigned) [63C*]
6. Cc1ccc(C2(C(=O)N[C@H]3C[C@H](C)CCN(c4nnn[nH]4)C3)CC2)c(O)c1 (single isomer, unassigned) [67B*]
7. Cc1cc(Cl)cc(O)c1C1(C(=O)N[C@@H]2C[C@H](C)CN(c3nnn[nH]3)C2)CC1 [Compound 33A]
8. C[C@H]1C[C@@H](NC(=O)C2(c3ccc(C4CC4)cc3)CC2)[C@@H]2CC[C@H]1N2c1nnn[nH]1 [81C*]

[out]
["50 to 100 µM", "10 to 50 µM", "< 1 µM", "< 1 µM", "10 to 50 µM", "< 1 µM", "< 1 µM", "50 to 100 µM"]

Required: IC50, one value per compound below.
1. C[C@H]1C[C@@H](NC(=O)C2(c3ccc(Cl)cc3)CC2)[C@@H]2CC[C@H]1N2c1nnn[nH]1 [80C*]
2. C[C@H]1C[C@@H](NC(=O)C2(c3ccc(SC(F)F)cc3)CC2)[C@@H]2CC[C@H]1N2c1nnn[nH]1 [85C*]
3. Cc1ccc(C2(C(=O)N[C@H]3C[C@H](C)CCN(c4nnn[nH]4)C3)CC2)c(O)c1F (single isomer, unassigned) [74B*]
4. C[C@H]1C[C@@H](NC(=O)C2(c3ccc(OC(F)(F)F)cc3O)CC2)CN(c2nnn[nH]2)C1 [Compound 17A]
5. C[C@H]1CCN(c2nnn[nH]2)C[C@@H](NC(=O)C2(c3ccc(C4CC4)cc3)CC2)C1 (single isomer, unassigned)
6. C[C@H]1CC[C@H](NC(=O)C2(c3ccc(C(F)(F)F)cc3O)CC2)CN(c2nnn[nH]2)C1 [89B*]

[out]
> 100 µM
> 100 µM
1 to 10 µM
< 1 µM
1 to 10 µM
< 1 µM
